- tested-system: T1, DFNB31_2, Q9P202
- T1 sequence (Q9P202 274-371, limits assumed, looked up): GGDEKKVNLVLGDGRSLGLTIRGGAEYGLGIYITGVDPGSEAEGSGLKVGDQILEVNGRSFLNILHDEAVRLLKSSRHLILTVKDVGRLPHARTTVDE
- assay-overview: holdup assay
- Design: key: below the threshold = too weak to quantify, mostly under pKd 3.1 to 4
- measurement-conditions: plain residues with an end cap or a label only (N-terminal biotin on a linker: ado-ado)
observation-type: pKd

Some entries whose results are on file:
{"binder": "LKDDELKTKL [SLCO1A2, P46721]", "pKd": "below the threshold"}
{"binder": "NIAESLESLV [PTPRZ1, P23471]", "pKd": "below the threshold"}
{"binder": "GTGYDRKDYV [CLDN3, O15551]", "pKd": "below the threshold"}
{"binder": "APIAGFSSFV [SDK2, Q58EX2]", "pKd": 3.52}
{"binder": "NTANRRTTPV [CACNG2, Q9Y698]", "pKd": "below the threshold"}
{"binder": "QLSFNTDTLC [ABCA2, Q9BZC7]", "pKd": "below the threshold"}
{"binder": "EDPRVEVTQF [SLC22A9, Q8IVM8]", "pKd": "below the threshold"}

Continue with the binder presented below.
Lab note: measured pKd of PTPDLPQTRV [KLHDC7A, Q5VTJ3] was 3.69

Values compiled from paper PMC9482650.
